assay: gradient 5% acetonitrile 3 min, to 50% in 2 min, to 85% in 15 min, held 3 min, 100 µL/min; conditions: column: Zorbax Extend-C18 2.1 x 50 mm; eluents: water / acetonitrile, 0.1% formic acid
Category | rule: reported RP-LC retention time within range, see range 1 (below 700 s), range 2 (700 s to below 900 s), range 3 (900 s or more)

COMPOUND	LABEL CLASS
O=C(Nc1cccc(C(F)(F)F)c1)c1cnc(-c2ccccc2)nc1-c1ccncc1	range 2
CCC(=O)N(C1CCOCC1)C1CCN(S(=O)(=O)c2ccc(F)c(F)c2)CC1	range 2
Cc1ccc(C(=O)Nc2ccc3c(c2)Sc2ncccc2C(=O)N3C(C)C)cc1F	range 3
Cc1nnc(NC(=O)CSc2ccc(-c3sc(-c4cccnc4)nc3C)nn2)s1	range 1
COc1ccccc1-c1nc(-c2cn(-c3cccc(Cl)c3)nn2)no1	range 3
O=C(NC1CCN(Cc2ccccc2)CC1)C1CCN(c2cnc3nccnc3c2)CC1	range 1
Nc1cc(C2CCN(C(=O)c3cccc(F)c3)CC2)no1	range 1
COc1cc(Cl)c(C)cc1NC(=O)C1CCCN(c2ncnc3c2nc2n3CCCCC2)C1 (centres undefined)	range 3
Cn1nc(C(=O)N2CCCC2)c2c1CCN(C(=O)CCC(=O)N1CCCCC1)C2	range 1
O=C(c1ccc(CS(=O)c2ccc(Cl)cc2)o1)N1CCN(c2ccccn2)CC1 (centres undefined)	range 1
Cc1ccc(CNc2ncccc2-c2nnc(-c3ccc(Cl)cc3)o2)o1	range 3
Cc1nc(-c2ccc(C(=O)N3CCCC3)cc2)no1	range 1
CC1CCCCN1CCCNC(=O)Cn1c2ccccc2c2cnn(C)c(=O)c21 (centres undefined)	range 1
CN1C(=O)c2cc(C(=O)N3CCCCCC3)nn2CC1(C)C(=O)NC1CCCCCC1 (centres undefined)	range 2

====

Here the recorded RP-LC retention time is given for each entry.
assay: gradient 5% acetonitrile 3 min, to 50% in 2 min, to 85% in 15 min, held 3 min, 100 µL/min; details: column: Zorbax Extend-C18 2.1 x 50 mm; eluents: water / acetonitrile, 0.1% formic acid
VALUE TYPE: RP-LC retention time (s)

MOLECULE	VALUE TYPE	NUMERIC READOUT
O=C(Cc1c[nH]c2ccccc12)N1CCC(NS(=O)(=O)c2ccc(Cl)cc2)CC1	RP-LC retention time	829
CCn1nccc1C(=O)NC1CCN(c2nc3c(s2)c(C)nn3-c2ccc(F)cc2)CC1	RP-LC retention time	1060
Cc1nc2cc(NC(=O)c3ccc(S(=O)(=O)N(C)CC4CCCO4)cc3)ccc2s1 (stereo not given)	RP-LC retention time	764
c1ccc(COCCc2noc(C3CCCCN3)n2)cc1 (stereo not given)	RP-LC retention time	622
COCC(=O)N1CC2CN(S(=O)(=O)c3ccc(OC)cc3)CC(C1)O2	RP-LC retention time	934
COc1cc([N+](=O)[O-])ccc1NC(=O)c1cccc(Br)c1	RP-LC retention time	1030
CCc1nc(-c2csc(S(=O)(=O)N3CCC(C(=O)Nc4cc(C)cc(C)c4)CC3)c2)no1	RP-LC retention time	1090
O=C(Cn1c(Cc2ccccc2)nc2ccccc21)N1CCCCCC1	RP-LC retention time	670
COc1ccc(-c2nnc(SCc3ccc(Br)cc3)o2)c(OC)c1	RP-LC retention time	1120
O=C(c1ccc2ncccc2c1)N1C[C@@H](CO)[C@H](c2ccccn2)C1	RP-LC retention time	543
CC(NC(=O)C1(c2ccc(NS(C)(=O)=O)cc2)CCCCC1)c1ccc(F)cc1 (stereo not given)	RP-LC retention time	952
COc1ccc(CCc2nc3nccc(-c4ccc(OC)cc4F)n3n2)cc1	RP-LC retention time	941
Cc1cccc(NC(=O)Cc2csc3nc(-c4cccc(Br)c4)cn23)c1C	RP-LC retention time	983
N#Cc1cccc(-c2cn3c(n2)N(C(=O)Cc2ccsc2)CCC3)c1	RP-LC retention time	822
CCOc1cccc(-c2noc(-c3nnn(Cc4nc(-c5cccc(C)c5)oc4C)c3C)n2)c1	RP-LC retention time	1410
O=C(c1ccc(Cl)cc1)N1CCN(c2nc(CN3CCOCC3)cs2)CC1	RP-LC retention time	638
O=C(NCCOc1ccccc1)C(=O)c1c[nH]c2ccccc12	RP-LC retention time	886
CCCN1CCN(C(=O)CSc2nccnc2Sc2ccccc2)CC1	RP-LC retention time	662
CCCOc1nc2ccccc2nc1N1CCCC(C(=O)NC2CC2)C1 (stereo not given)	RP-LC retention time	1010
O=C(CSc1ccc(Cl)cc1)Nc1nnc(-c2cccc([N+](=O)[O-])c2)s1	RP-LC retention time	968
CCn1cc2c3c(cccc31)CN(C(=O)Nc1cc(C)cc(C)c1)CC2	RP-LC retention time	1070
Cc1ccccc1CNC(=O)C1(C)CCCN(C(=O)Nc2cccc(C)c2C)C1 (stereo not given)	RP-LC retention time	977
CCCn1c(CCNC(=O)c2ccc(C#N)cc2)nc2cccnc21	RP-LC retention time	662
CCCCN1C(=O)C(C)(C(=O)Nc2ccc(F)cc2F)Oc2cccnc21 (stereo not given)	RP-LC retention time	1050
CCCNC(=O)NCCC1CCN(S(=O)(=O)c2ccccc2)CC1	RP-LC retention time	753
CCOc1ccc(-c2csc3c(=O)n(Cc4ccc(F)cc4)cnc23)cc1OCC	RP-LC retention time	1100
CCN1C(=O)C2(CCN(S(=O)(=O)c3cccc(C)c3)CC2)c2ccccc21	RP-LC retention time	1070
COc1ccc(-c2nnc(-c3cccc(S(=O)(=O)N4CCOCC4)c3)o2)cc1	RP-LC retention time	868
CCc1nn(C(C)C(=O)NCCc2c[nH]c3ccccc23)c(=O)c2cc3occc3n12 (stereo not given)	RP-LC retention time	851
Cc1cc2c(N3CCCC(C(=O)NCc4ccc(Br)cc4)C3)nccc2s1 (stereo not given)	RP-LC retention time	702
O=C1NCCOCCCN(C(=O)Nc2ccccc2)[C@H]2CCC[C@@H]12	RP-LC retention time	741
CCN1C(=O)COc2ccc(-c3noc(-c4ccc(C(F)(F)F)cc4)n3)cc21	RP-LC retention time	1260
COc1ccc(C2CC(=O)N(c3cccc(Cl)c3)C(=O)C2)cc1OC	RP-LC retention time	881
COCCCNC(=O)N1CCC(C)(c2noc(C3CCOCC3)n2)CC1	RP-LC retention time	654
Cc1nc(-c2cc(S(=O)(=O)Nc3ccc(F)c(Cl)c3)c(C)s2)cs1	RP-LC retention time	1030
Cc1c(Cl)cccc1NC(=O)CC1COc2ccccc2NC1=O (stereo not given)	RP-LC retention time	756
Cc1cc(Cl)ccc1S(=O)(=O)N1CCc2nn(C)c(=O)n2CC1	RP-LC retention time	756
COc1ccc(S(=O)(=O)NC2CCN(C(=O)C3CCC3)CC2)cc1	RP-LC retention time	750
Cc1ccc(NC(=O)N2CCC(c3cc(N)on3)CC2)cc1	RP-LC retention time	686
CCOc1ccccc1NC(=O)C1CCN(c2cncnc2N2CCOCC2)CC1	RP-LC retention time	651
